# measured-target: human TLR7 (Homo sapiens)
# Construct: host or cells: HEK-Blue cells
# Sequence (Q9NYK1 27-1049): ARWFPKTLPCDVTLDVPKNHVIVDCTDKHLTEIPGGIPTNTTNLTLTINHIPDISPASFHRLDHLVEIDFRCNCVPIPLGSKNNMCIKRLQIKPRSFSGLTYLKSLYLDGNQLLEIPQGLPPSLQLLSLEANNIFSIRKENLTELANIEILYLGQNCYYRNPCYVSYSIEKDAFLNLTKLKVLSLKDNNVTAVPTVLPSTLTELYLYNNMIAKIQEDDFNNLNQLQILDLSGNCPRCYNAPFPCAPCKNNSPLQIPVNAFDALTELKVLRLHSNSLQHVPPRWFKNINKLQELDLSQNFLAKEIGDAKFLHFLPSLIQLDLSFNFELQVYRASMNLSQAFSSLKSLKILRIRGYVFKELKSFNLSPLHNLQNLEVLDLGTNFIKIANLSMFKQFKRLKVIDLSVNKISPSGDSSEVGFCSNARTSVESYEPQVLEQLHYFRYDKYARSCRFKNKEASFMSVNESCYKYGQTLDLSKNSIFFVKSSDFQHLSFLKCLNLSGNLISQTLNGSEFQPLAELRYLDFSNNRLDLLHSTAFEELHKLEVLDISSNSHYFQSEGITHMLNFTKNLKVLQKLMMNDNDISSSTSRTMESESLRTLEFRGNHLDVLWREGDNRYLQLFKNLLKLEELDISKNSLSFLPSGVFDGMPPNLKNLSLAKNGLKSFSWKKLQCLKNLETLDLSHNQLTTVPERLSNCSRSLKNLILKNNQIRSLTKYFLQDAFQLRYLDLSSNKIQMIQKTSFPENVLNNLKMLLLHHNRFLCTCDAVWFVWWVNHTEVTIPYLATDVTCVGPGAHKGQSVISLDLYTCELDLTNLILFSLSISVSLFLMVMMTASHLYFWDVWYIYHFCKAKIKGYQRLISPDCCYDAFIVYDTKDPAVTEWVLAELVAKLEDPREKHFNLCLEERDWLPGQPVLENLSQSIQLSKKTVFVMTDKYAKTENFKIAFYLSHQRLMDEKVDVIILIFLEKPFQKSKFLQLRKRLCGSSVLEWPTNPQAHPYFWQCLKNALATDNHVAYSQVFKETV
# assay: TLR7 inhibition reporter assay (HEK-Blue cells, SEAP reporter, gardiquimod stimulation)
# Type: cell-based
# experimental-parameters: HEK-Blue cells overexpressing human TLR7, SEAP reporter, gardiquimod 7.5 μM
pIC50 values by entry
Scale for pIC50: -log10 of concentration given in mol/L; no unit attached.

Recorded results for 3 compounds are shown here.
compound=COc1ccc(-c2[nH]nc(C(=O)NC3CCN(C(C)C)CC3)c2C(C)C)cc1OC measured_target="human TLR7 (Homo sapiens)" endpoint=pIC50 readout_value=8.35
compound=Cc1cc(-c2[nH]nc(C(=O)NC3CN(C)C3)c2C(C)C)cn2ncnc12 measured_target="human TLR7 (Homo sapiens)" endpoint=pIC50 readout_value=8.76
compound=Cc1cc(-c2[nH]nc(C(=O)N3CCOCC3)c2C(C)C)cn2ncnc12 measured_target="human TLR7 (Homo sapiens)" endpoint=pIC50 readout_value=8.36

API: the following record is the query input.
Dear colleague, please send me the reported pIC50 for COc1cc(-c2[nH]nc(-c3cnc(C4CCN(CCS(C)(=O)=O)CC4)cn3)c2C(C)C)cn2ncnc12 when you can.
6.66
